Recorded values, source ChEMBL document CHEMBL3763024.

# target-or-system: Carbonic anhydrase 9 (Homo sapiens)
# protocol-description: Inhibition of human recombinant carbonic anhydrase 9 preincubated for 15 mins by stopped flow CO2 hydration assay
pKi: −log10 of the molar value.
assay-readout: pKi

The reported pKi value, Carbonic anhydrase 9 (Homo sapiens), for NS(=O)(=O)c1ccc(-n2c(S)nc3cc(Br)ccc3c2=O)cc1 reads 6.79

Record for NS(=O)(=O)c1ccc(-n2c(S)nc3c(F)cccc3c2=O)cc1 under target or system Carbonic anhydrase 9 (Homo sapiens): pKi reported as 7.34

Hey, Carbonic anhydrase 9 (Homo sapiens) data for COc1ccc2c(=O)n(-c3ccc(S(N)(=O)=O)cc3)c(S)nc2c1OC : pKi came out at 7.31

Record NS(=O)(=O)c1ccc(-n2c(S)nc3c(I)cccc3c2=O)cc1 ; system Carbonic anhydrase 9 (Homo sapiens); pKi = 7.84

Item: Cc1ccc2nc(S)n(-c3ccc(S(N)(=O)=O)cc3)c(=O)c2c1 | System: Carbonic anhydrase 9 (Homo sapiens) | pKi: 7.79

Measured on Carbonic anhydrase 9 (Homo sapiens), NS(=O)(=O)c1ccc(-n2c(S)nc3ccc(Cl)cc3c2=O)cc1 has a documented pKi of 7.46

Entry NS(=O)(=O)c1ccc(-n2c(S)nc3c(Br)cccc3c2=O)cc1 , Carbonic anhydrase 9 (Homo sapiens) data, pKi value: 8.33

Kindly note: Carbonic anhydrase 9 (Homo sapiens), NS(=O)(=O)c1ccc(-n2c(S)nc3c(Cl)cccc3c2=O)cc1 , pKi value reported: 7.36

Short answer on Carbonic anhydrase 9 (Homo sapiens) for COc1cccc2c(=O)n(-c3ccc(S(N)(=O)=O)cc3)c(S)nc12 , pKi: 8.29

Simply: COc1ccc2nc(S)n(-c3ccc(S(N)(=O)=O)cc3)c(=O)c2c1 , Carbonic anhydrase 9 (Homo sapiens), pKi = 8.43

A. COc1cc2c(=O)n(-c3ccc(S(N)(=O)=O)cc3)c(S)nc2c(OC)c1OC
B. NS(=O)(=O)c1ccc(-n2c(S)nc3ccc(Br)cc3c2=O)cc1
C. Cc1cc(C)c2nc(S)n(-c3ccc(S(N)(=O)=O)cc3)c(=O)c2c1
D. NS(=O)(=O)c1ccc(-n2c(S)nc3cc(Cl)ccc3c2=O)cc1
Rank entries according to their pKi, from the largest number down. Please list the labels in the order you were asked to rank them.
C, A, D, B
